All values here come from PubChem BioAssay AID1159580.

- PROTOCOL_DETAILS: chemical genetic growth profiling, strain panel (AID 1159580);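 further: tested at 20 µM; growth read once vehicle control cultures reached saturation at 30 °C; 1 = growth at the plate median or of vehicle wells; lower values mean less growth of the strain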
- STATED_CONDITIONS: S. cerevisiae deletion strains, growth OD, locus YJR075W, strain HOC1, hits give low values
Hit rate of the full screen: of about 5,500 compounds, about 2,000 (36%) were called active. Roughly 18% stayed inconclusive and do not appear here. This is one part of the list.
REPORTED_ENDPOINT: normalized growth
Simply state the number, no unit and no words.

Prompt: Reported normalized growth for O=C(O)c1cnn(-c2ccccc2)c1C(F)(F)F : what is it?
Response: 1.02

Prompt: Reported normalized growth for N#Cc1cnn(-c2ccccc2)c1-n1cccc1 : what is it?
Response: 0.988

Prompt: Reported normalized growth for COc1ccccc1C1CCN(C(=O)c2ccc(F)cc2)CC1 : what is it?
Response: 1

Prompt: Reported normalized growth for N#Cc1c(Cl)c(Cl)c(Cl)c(C#N)c1Cl : what is it?
Response: 0.999

Prompt: Reported normalized growth for CCC1(c2ccccc2)C(=O)NCNC1=O : what is it?
Response: 1.01

Prompt: Reported normalized growth for CCc1ccc(CCOc2ccc(CC3SC(=O)NC3=O)cc2)nc1 (stereo not drawn) : what is it?
Response: 0.997

Prompt: Reported normalized growth for CCC1(C)CC(=O)NC1=O (stereo not drawn) : what is it?
Response: 1.01

Prompt: Reported normalized growth for CN1C2CC3C[C@H]1C(O3)C2O (stereo partly drawn) : what is it?
Response: 1.01

Prompt: Reported normalized growth for O=C(Nc1ccccc1C(=O)Nc1ccc(Br)cc1)c1ccccc1 : what is it?
Response: 0.997

Prompt: Reported normalized growth for COc1ccccc1C1CCN(Cc2ccc3ccccc3c2)CC1 : what is it?
Response: 0.99

Prompt: Reported normalized growth for OCC(O)Cc1ccc2c(c1)OCO2 (stereo not drawn) : what is it?
Response: 0.984

Prompt: Reported normalized growth for C[N+](C)(C)CC(=O)[O-] : what is it?
Response: 0.977

Prompt: Reported normalized growth for O=C(O)CSCCOc1ccccc1 : what is it?
Response: 1.02

---

Hi there, I'd appreciate the recorded normalized growth for every entry that follows.
- PROTOCOL_DETAILS: chemical genetic growth profiling, strain panel (AID 1159580);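 further: tested at 20 µM; growth read once vehicle control cultures reached saturation at 30 °C; 1 = growth at the plate median or of vehicle wells; lower values mean less growth of the strain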
- STATED_CONDITIONS: S. cerevisiae deletion strains, growth OD, locus YNL067W, strain RPL9B, hits give low values
Hit rate of the full screen: of about 5,500 compounds, about 2,000 (36%) were called active. About 18% were inconclusive and are not listed. The list shows a part of the results.

Prompt: Reported normalized growth for CO[C@H]1C[C@H](O[C@H]2[C@H](C)[C@@H](OC3O[C@H](C)C[C@H](N(C)C)[C@H]3O)[C@@H](C)C[C@]3(CO3)C(=O)[C@H](C)[C@@H](O)[C@@H](C)[C@@H](C)OC(=O)[C@@H]2C)O[C@@H](C)[C@@H]1O (some centres not stated) : what is it?
Response: 1.02 (inactive)

Prompt: Reported normalized growth for CC(C)(C)CC(C)(C)c1ccc(OCCOCC[N+](C)(C)Cc2ccccc2)cc1 : what is it?
Response: 0.977 (inactive)

Prompt: Reported normalized growth for C=C1CC[C@H](O)C/C1=C/C=C1\CCC[C@]2(C)C([C@H](C)/C=C/[C@H](C)C(C)C)CC[C@@H]12 (some centres not stated) : what is it?
Response: 0.982 (inactive)

Prompt: Reported normalized growth for CN1C2CC3C[C@H]1C(O3)C2O (some centres not stated) : what is it?
Response: 1 (inactive)

Prompt: Reported normalized growth for C=CCc1ccc2c(c1)OCO2 : what is it?
Response: 0.998 (inactive)

Prompt: Reported normalized growth for CC(=O)O[C@H]1C(=O)[C@@]2(C)C([C@H](OC(=O)c3ccccc3)[C@]3(O)C[C@H](OC(=O)[C@H](O)[C@@H](NC(=O)c4ccccc4)c4ccccc4)C(C)=C1C3(C)C)[C@]1(OC(C)=O)CO[C@@H]1C[C@@H]2O (some centres not stated) : what is it?
Response: 1.02 (inactive)

Prompt: Reported normalized growth for OC(CCN1CCCCC1)(c1ccccc1)c1ccccc1 : what is it?
Response: 1.02 (inactive)

Prompt: Reported normalized growth for CCC1(C)CC(=O)NC1=O (configuration not stated) : what is it?
Response: 1.01 (inactive)

Prompt: Reported normalized growth for CNc1ccccc1C(=O)N1CCc2c([nH]c3ccccc23)C1=O : what is it?
Response: 1.01 (inactive)

Prompt: Reported normalized growth for CCC1(c2ccccc2)C(=O)NCNC1=O : what is it?
Response: 1.01 (inactive)

Prompt: Reported normalized growth for CC(C)=CCc1c(O)cc2oc(C)cc(=O)c2c1O : what is it?
Response: 1.01 (inactive)

Prompt: Reported normalized growth for NC/C=C/C(=O)O : what is it?
Response: 1.01 (inactive)
